- assay-details: In combo PAMPA-BBB model, calculated log Po in situ
- condition-context: no efflux inhibition
parameter: obs–calc (log Po^in situ)
A bare number is all that is needed in reply.

Guide cases for obs–calc (log Po^in situ), answers given:
# compound, obs–calc (log Po^in situ)
rows = [
    ("CC(NC(C)(C)C)C(=O)c1cccc(Cl)c1 (stereo not shown)", 0.9),
    ("CCCN(CCC)S(=O)(=O)c1ccc(C(=O)O)cc1", "−0.7"),
    ("CSc1ccc2c(c1)N(CCC1CCCCN1C)c1ccccc1S2 (stereo not shown)", "−0.8"),
    ("O=c1n(CCCN2CCN(c3cccc(Cl)c3)CC2)nc2ccccn12", 0.0),
    ("COc1cc([C@@H]2c3cc4c(cc3[C@@H](O[C@@H]3O[C@@H]5CO[C@@H](C)O[C@H]5[C@H](O)[C@H]3O)[C@H]3COC(=O)[C@H]23)OCO4)cc(OC)c1O [Etoposide]", "−0.1"),
]

Inquiry: Need obs–calc (log Po^in situ) of CC(C)n1c(/C=C/C(O)CC(O)CC(=O)O)c(-c2ccc(F)cc2)c2ccccc21 (stereo not shown) , thanks.
Reply text: 0.9

Inquiry: # iterate: O=C(CCCN1CCC(O)(c2ccc(Cl)cc2)CC1)c1ccc(F)cc1
Reply text: −0.3
